ASSAY OVERVIEW: inhibitors of the yeast RAM network, pilot screen, dse1pr::URA3 reporter, 5-FOA selection (AID 869);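 note: 0% = DMSO wells with no growth and 100% = 10 µM 1-NA-PP1 with full growth; RAM network block rescues cells from 5-FOA so hits raise OD615 growth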
EXPERIMENTAL CONDITIONS: S. cerevisiae dse1pr::URA3 5-FOA growth, OD615, 2 d; at 10 µM; active compounds read high; strain carries analog-sensitive mutant Cbk1 kinase
So I've got a bunch of compounds here, and I need their inhibition values.
Numbers only, in %.

Below, 3 compounds whose answers are already recorded.
COMPOUND | UNIT DESCRIPTOR | ASSAY RESULT
COCCCNc1ncnc2nc[nH]c12 | % | 0.885
COC(=O)c1c(S(N)(=O)=O)c2ccccc2n1C | % | 1.06
CN(C)c1ccc(NC(=O)c2cccc(N3C(=O)CCC3=O)c2)cc1 | % | -0.005

# batch size: 4; output inhibition per entry
1. CCCC(=O)N1CC(=O)Nc2ccc(F)cc2C1c1ccccc1 (centres undefined)
2. COc1ccc(O)c(C(=O)c2cnn(C(=O)c3cc(C)oc3C)c2)c1
3. CC(C)CC(NS(=O)(=O)c1ccc2c(c1)oc(=O)n2C)C(=O)NC1CCCc2ccccc21 (centres undefined)
4. COc1ccc(N2CCN(C3CC(=O)N(C)C3=O)CC2)cc1 (centres undefined)

a:
3.18
2.02
1.38
1.95

Count: 5. Required value per item: inhibition.
1. COc1ccc2c(c1)NC1(O)c3ccccc3C(=O)C21O (centres undefined)
2. Cc1sc2nc(SCC(=O)NCc3ccco3)n(C)c(=O)c2c1C
3. Cc1cc(=O)c2c(C)nn(-c3ccccc3)c2[nH]1
4. CCN1CCN(C(=O)Nc2ccc(Cc3ccc(NC(=O)N4CCN(CC)CC4)cc3)cc2)CC1
5. CCOC(=O)c1ccc(N2CSC3=C(C#N)C(c4cccs4)CC(=O)N3C2)cc1 (centres undefined)

a:
1. 1.53
2. 2.1
3. 2.23
4. 1.72
5. 1.52

State recorded inhibition for all listed compounds.
1. Cn1c(=O)oc2cc(S(=O)(=O)Nc3ccc(Cl)cc3F)ccc21
2. CCSc1nnc(-c2ccc(Cl)cc2Cl)o1
3. COc1cc(OC)c(C2Oc3nc(SC)nnc3-c3ccccc3N2C(C)=O)cc1OC (centres undefined)
4. Cc1ccc(-c2nc(C#N)c(NCCN3CCCCC3)o2)cc1
5. COc1cccc(-c2nc(CS(=O)CC(=O)NC3CCCC3)c(C)o2)c1 (centres undefined)
6. CCc1nnc(NC(=O)CCN2C(=O)CCC2=O)s1
7. COC(=O)c1ccccc1Nc1cc(C)nc2nc(C)nn12

a:
[0.53, 1.65, 3.23, 1.4, 1.09, 0.52, -0.315]

Here are 4 compounds. What values of inhibition were reported for them?
1. CCOc1ccc(C(=O)Nc2cc(=O)n(C)c(=O)n2C)cc1
2. Cc1nn(C)cc1CN(C)C(=O)c1sc2cccc(Cl)c2c1Cl
3. N#Cc1ccc(NC(=O)Nc2ccc(Cl)cc2)cc1
4. CCOC(=O)N1CCN(C(=O)c2cc(C)no2)CC1

a:
1.9
-0.12
1.34
1.04

q: Look up and state reported inhibition for O=C(CCS(=O)(=O)c1cccc2nonc12)NCCc1ccccc1
a: 4.24
